Target: EXON 20 Insertion(NPG) Ba/F3 Cell (Homo sapiens, UniProt P00533, INS772GNP, cells depend on it)
Sequence (P00533 with tags, fused parts or gaps INS772GNP): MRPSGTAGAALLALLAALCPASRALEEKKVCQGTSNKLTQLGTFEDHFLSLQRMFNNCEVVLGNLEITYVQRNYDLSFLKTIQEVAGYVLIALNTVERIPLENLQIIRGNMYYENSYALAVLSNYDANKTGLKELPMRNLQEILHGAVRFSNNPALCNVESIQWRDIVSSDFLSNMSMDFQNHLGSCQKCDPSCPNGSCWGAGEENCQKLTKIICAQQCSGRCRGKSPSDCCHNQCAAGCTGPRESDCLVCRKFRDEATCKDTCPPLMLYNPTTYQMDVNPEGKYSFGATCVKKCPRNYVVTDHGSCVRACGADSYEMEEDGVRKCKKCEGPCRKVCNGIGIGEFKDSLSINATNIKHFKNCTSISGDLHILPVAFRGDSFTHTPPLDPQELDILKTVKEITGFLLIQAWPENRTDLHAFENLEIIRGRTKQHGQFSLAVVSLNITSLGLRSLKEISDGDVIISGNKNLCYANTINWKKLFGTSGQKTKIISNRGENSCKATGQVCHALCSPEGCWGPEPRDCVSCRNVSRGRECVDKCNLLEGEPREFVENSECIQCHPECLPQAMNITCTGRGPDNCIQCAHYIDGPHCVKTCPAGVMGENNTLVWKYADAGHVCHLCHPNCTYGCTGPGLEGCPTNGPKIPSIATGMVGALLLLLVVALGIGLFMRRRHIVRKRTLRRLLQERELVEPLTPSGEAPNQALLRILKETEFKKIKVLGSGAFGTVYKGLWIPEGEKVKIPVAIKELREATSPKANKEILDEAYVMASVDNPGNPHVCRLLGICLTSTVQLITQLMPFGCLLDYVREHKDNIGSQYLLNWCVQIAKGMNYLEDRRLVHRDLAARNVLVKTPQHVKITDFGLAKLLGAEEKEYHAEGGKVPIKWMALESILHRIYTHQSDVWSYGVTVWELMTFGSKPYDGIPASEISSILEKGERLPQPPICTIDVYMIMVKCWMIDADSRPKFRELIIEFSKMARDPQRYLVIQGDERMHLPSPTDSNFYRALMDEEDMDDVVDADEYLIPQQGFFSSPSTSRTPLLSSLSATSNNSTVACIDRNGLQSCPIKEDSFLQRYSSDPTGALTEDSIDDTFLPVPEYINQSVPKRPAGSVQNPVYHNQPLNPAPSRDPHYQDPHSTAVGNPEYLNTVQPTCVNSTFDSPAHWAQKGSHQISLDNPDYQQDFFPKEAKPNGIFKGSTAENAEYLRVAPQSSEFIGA
Assay: Measurement of cancer cell growth inhibitory effect (MTT assay)
Format: cell-based, Murine
Details: Ba/F3 cells expressing EGFR with NPG added at D770_N771, 72 hours treatment, read at 595 nm, read-out: EXON 20 Insertion(NPG) Ba/F3 Cell(IC50)
Below is a list of entries, each paired with its recorded GI50 value.

Known GI50 results, listed for orientation:
C=CC(=O)Nc1cc(Nc2ncc(C(=O)OC(C)C)c(Nc3ccccc3-c3ccn(C)n3)n2)c(OC)cc1N1CC[C@H](N(C)C)C1 = 25 to 50 nM
C=CC(=O)Nc1cc(Nc2cc(Nc3ccccc3-c3ccn(C)n3)ncn2)c(OC(C)C)cc1N(C)CCN(C)C = 25 to 50 nM
C=CC(=O)Nc1cc(Nc2ncc(C(=O)OC3CC3)c(Nc3ccccc3-c3ccn(C)n3)n2)c(OC)cc1N(C)CCN(C)C = 25 to 50 nM
C=CC(=O)Nc1cc(Nc2ncc(C(=O)OC(C)C)c(-c3cn(C)c4ccccc34)n2)c(OC)cc1N(C)CCN(C)C [Mobocertinib, reference compound] = 50 to 500 nM
C=CC(=O)Nc1cc(Nc2ncc(C(=O)OC(C)C)c(Nc3ccccc3-c3ccn(C)n3)n2)c(OC)cc1N(C)[C@@H]1CCN(C)C1 = 25 to 50 nM

Find the recorded GI50 belonging to C=CC(=O)Nc1cc(Nc2ncc(C(=O)OCC)c(Nc3ccccc3-n3cccn3)n2)c(OC)cc1N(C)CCN(C)C and report it.
25 to 50 nM
